# tested_target: 5-epi-aristolochene synthase (TEAS) (Nicotiana tabacum, UniProt Q40577)
# Sequence (Q40577 1-548): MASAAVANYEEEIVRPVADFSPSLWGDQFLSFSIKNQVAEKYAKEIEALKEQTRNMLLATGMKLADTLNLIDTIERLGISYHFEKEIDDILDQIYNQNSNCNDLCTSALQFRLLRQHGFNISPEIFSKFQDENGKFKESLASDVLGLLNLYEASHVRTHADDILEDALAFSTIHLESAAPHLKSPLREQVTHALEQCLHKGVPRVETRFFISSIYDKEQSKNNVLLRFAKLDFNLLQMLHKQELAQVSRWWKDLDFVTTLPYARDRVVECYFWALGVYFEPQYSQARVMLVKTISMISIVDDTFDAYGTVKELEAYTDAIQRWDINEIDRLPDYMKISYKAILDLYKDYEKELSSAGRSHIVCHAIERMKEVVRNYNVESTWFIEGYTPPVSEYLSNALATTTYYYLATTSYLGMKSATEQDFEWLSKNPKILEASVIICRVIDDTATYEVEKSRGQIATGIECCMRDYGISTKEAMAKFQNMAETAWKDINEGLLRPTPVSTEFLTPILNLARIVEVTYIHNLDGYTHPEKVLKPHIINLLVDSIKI
quantity_kind: Ki
Mention the unit after the number when you answer.

For C/C(=C\COP(=O)(O)OP(=O)(O)O)CC/C=C(\C)CNc1ccccc1 the molecule record lists Ki as 380 nM

These data points were gathered from paper PMC4570970.
